biological target: Acetylcholinesterase (Homo sapiens) (UniProt P22303); test: Acetylcholinesterase (AChE) small molecule antagonists: enzyme-based qHTS assay (AID 1347397); settings: AChE enzyme activity inhibition; series mostly up to 115 µM; further: nearly all actives have a fitted effect of over 55% in size
Sequence (P22303 whole entry, looked up): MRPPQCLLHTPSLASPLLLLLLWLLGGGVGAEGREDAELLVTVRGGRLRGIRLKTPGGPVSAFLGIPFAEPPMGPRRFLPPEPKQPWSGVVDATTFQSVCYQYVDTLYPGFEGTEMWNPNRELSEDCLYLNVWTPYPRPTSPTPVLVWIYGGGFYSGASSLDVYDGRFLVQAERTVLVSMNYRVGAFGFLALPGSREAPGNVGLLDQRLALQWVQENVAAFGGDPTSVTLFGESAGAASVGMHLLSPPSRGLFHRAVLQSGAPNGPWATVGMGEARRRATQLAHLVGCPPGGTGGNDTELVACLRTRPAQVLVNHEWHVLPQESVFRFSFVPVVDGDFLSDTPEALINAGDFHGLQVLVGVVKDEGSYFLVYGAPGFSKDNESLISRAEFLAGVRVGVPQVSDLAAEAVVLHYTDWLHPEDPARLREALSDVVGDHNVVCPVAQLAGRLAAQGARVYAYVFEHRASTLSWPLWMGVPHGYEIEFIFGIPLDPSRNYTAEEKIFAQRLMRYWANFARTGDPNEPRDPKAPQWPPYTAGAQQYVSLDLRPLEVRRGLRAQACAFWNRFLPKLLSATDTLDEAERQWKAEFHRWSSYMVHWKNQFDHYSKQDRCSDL
Activity calls are given as the source filed them. The call rests on the fitted dose curve.
Lab note: assign the record to one of true (1) for active, false (0) for inactive

molecule	class name
C[C@H](CCC(=O)O)[C@H]1CC[C@H]2[C@@H]3CC[C@@H]4C[C@H](O)CC[C@]4(C)[C@H]3C[C@H](O)[C@]12C	false (0)
O=C(O)CSCC(=O)NC1CCSC1=O (stereo unspecified)	false (0)
CCC/C=C/C=O	false (0)
Nc1ccc(S(=O)(=O)Nc2nccs2)cc1	false (0)
CC1CC(C)C(=O)C1=O (stereo unspecified)	false (0)

# ---- query molecule ----
Query: recorded result category for CC(=O)Nc1cccc(O)c1 in this test false (0)
